B1: library; numbered along this chain (parent)
chain: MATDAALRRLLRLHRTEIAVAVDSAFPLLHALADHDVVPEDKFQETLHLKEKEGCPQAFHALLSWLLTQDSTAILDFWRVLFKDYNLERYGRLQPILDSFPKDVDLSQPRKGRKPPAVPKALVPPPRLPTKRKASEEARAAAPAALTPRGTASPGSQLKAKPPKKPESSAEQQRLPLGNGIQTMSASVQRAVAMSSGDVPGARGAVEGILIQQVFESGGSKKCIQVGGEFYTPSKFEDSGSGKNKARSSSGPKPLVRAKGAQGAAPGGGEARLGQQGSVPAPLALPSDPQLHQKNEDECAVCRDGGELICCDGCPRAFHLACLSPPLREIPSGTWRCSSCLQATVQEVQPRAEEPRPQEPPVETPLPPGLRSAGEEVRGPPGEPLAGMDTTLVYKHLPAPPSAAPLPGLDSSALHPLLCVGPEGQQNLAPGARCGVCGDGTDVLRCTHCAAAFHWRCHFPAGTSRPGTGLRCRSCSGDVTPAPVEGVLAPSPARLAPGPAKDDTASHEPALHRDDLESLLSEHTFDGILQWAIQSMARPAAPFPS

# Variants of: B1
# protocol_notes: AIRE transcriptional activation functional score (insulin promoter-GFP; nonsense median 0, synonymous median 1) (normalised score); higher = higher AIRE activity (more reporter activation)
# condition_label: with insulin promoter-GFP reporter in HEK293
Could you please classify the records by AIRE transcriptional activation functional score using these ranges: small value (below 0.3), mid value (0.3 to below 1), large value (1 or more)

mutation_code | category_label
P539D | small value
Q275I | large value
P115W | small value
E45R | small value
P280N | large value
R456N | small value
K133N | small value
S156K | mid value
M536L | large value
P384V | mid value
L28G | small value
S339M | small value
R356H | mid value
P401M | mid value
P233D | mid value
N244H | mid value
S518F | large value
K235E | mid value
A461Y | large value
P490I | large value
L323T | large value
